tgt: human FXR (NR1H4) (Homo sapiens, UniProt Q96RI1)
Sequence (Q96RI1 1-476 isoform Q96RI1-1): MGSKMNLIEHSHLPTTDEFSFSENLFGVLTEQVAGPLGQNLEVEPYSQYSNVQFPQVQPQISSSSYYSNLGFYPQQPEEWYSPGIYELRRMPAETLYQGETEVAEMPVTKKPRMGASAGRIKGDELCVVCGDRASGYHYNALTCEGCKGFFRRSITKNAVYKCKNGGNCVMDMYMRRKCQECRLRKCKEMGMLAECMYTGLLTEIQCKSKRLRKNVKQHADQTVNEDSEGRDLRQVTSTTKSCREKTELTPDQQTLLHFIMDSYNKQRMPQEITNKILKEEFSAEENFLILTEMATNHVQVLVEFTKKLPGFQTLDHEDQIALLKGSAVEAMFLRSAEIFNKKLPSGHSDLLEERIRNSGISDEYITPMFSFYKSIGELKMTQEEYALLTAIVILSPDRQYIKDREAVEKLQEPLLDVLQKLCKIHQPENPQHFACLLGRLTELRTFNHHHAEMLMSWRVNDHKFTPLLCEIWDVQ
assay_method_text: Human FXR (NR1H4) agonist assessment, FXRE-NanoLuc reporter in HEK293T cells
Assay type: cell-based
run_parameters: FXR activation, HEK293T FXRE-NanoLuc reporter, 24 hr
Method: As those skilled in the art appreciate, various technologies are available for assessment of FXR activation in accordance with the present disclosure. […] In the following day, a 10 μL aliquot of cell culture medium was removed from each well and combined with 40 μL culture medium plus […] assay buffer (containing 20 mM of the luciferase substrate coelenterazine). After 5 min incubation, luminescence was measured using an EnVision plate reader (PerkinElmer). […]
endpoint_name: Efficacy (maximum measured induction of NanoLuc, normalized to CDCA set as 100%)

compound	endpoint_value
CC[C@H]1[C@@H](O)[C@@H]2[C@H](CC[C@]3(C)[C@@H]([C@H](C)CCC(=O)O)CC[C@@H]23)[C@@]2(C)CC[C@H](F)C[C@@H]12 [1-1]	C (100%<efficacy <=300%)
CC[C@H]1[C@@H](O)[C@@H]2[C@H](CC[C@]3(C)[C@@H]([C@H](C)CCNC(=O)NS(=O)(=O)c4ccc(C(F)(F)F)cc4)CC[C@@H]23)[C@@]2(C)CCCC[C@@H]12 [5-19]	C (100%<efficacy <=300%)
CC[C@H]1[C@@H](O)[C@@H]2[C@H](CC[C@]3(C)[C@@H]([C@H](C)CCNC(=O)NS(=O)(=O)c4ccc5c(c4)OCO5)CC[C@@H]23)[C@@]2(C)CCCC[C@@H]12 [5-6]	C (100%<efficacy <=300%)
[2H]C1CC[C@@]2(C)[C@@H](C1)[C@@H](CC)[C@@H](O)[C@@H]1[C@@H]2CC[C@]2(C)[C@@H]([C@H](C)CCC(=O)O)CC[C@@H]12 (some centres unmarked) [13-1]	C (100%<efficacy <=300%)

----------
tgt: MRGPRX4 (Homo sapiens, UniProt Q96LA9)
Sequence (Q96LA9 whole entry): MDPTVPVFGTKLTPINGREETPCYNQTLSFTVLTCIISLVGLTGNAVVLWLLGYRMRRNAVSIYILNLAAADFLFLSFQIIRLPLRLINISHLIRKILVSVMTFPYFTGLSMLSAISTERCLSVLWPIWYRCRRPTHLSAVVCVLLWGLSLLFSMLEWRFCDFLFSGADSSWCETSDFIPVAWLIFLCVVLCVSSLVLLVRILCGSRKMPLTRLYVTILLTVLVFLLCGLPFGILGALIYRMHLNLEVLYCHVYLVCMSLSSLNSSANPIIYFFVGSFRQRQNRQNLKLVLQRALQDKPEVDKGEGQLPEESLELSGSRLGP
assay_method_text: MRGPRX4 activation, Fluo-8 Ca2+ FLIPR assay in HEK293T cells stably expressing MRGPRX4
Format: cell-based
Parameters: key: fluorescence change dF/F0
run_parameters: E3-9, Conc. (Log[M]) −5.0
endpoint_name: MRGPRX4 activation, Average
Lab note: jot down the number only; don't add units.

compound	endpoint_name	endpoint_value
CC[C@H]1[C@@H](O)[C@@H]2[C@H](CC[C@]3(C)[C@@H]([C@H](C)CCNC(=O)NS(=O)(=O)c4cc(F)ccc4F)CC[C@@H]23)[C@@]2(C)CC[C@H](F)C[C@@H]12	MRGPRX4 activation, Average	0.002
CCOC(=O)C(=O)NCC[C@@H](C)[C@H]1CC[C@H]2[C@@H]3[C@H](O)[C@H](CC)[C@@H]4CCCC[C@]4(C)[C@H]3CC[C@]12C	MRGPRX4 activation, Average	0.013
CC[C@H]1[C@@H](O)[C@@H]2[C@H](CC[C@]3(C)[C@@H]([C@H](C)CCNC(=O)NS(=O)(=O)c4cccs4)CC[C@@H]23)[C@@]2(C)CCCC[C@@H]12	MRGPRX4 activation, Average	0.001
CC[C@H]1[C@@H](O)[C@@H]2[C@H](CC[C@]3(C)[C@@H]([C@H](C)CCNS(=O)(=O)C[C@]45CC[C@H](CC4=O)C5(C)C)CC[C@@H]23)[C@@]2(C)CCCC[C@@H]12	MRGPRX4 activation, Average	0.020
CC[C@H]1[C@@H](O)[C@@H]2[C@H](CC[C@]3(C)[C@@H]([C@H](C)CCNC(=O)NS(=O)(=O)c4ccc(C(C)(C)CF)cc4)CC[C@@H]23)[C@@]2(C)CCC(F)(F)C[C@@H]12	MRGPRX4 activation, Average	0.021

Now for the compound whose MRGPRX4 activation, Average we want.
So what MRGPRX4 activation, Average did [2H]C1CC[C@@]2(C)[C@@H](C1)[C@@H](CC)[C@@H](O)[C@@H]1[C@@H]2CC[C@]2(C)[C@@H]([C@H](C)CCC(=O)O)CC[C@@H]12 (some centres unmarked) get with MRGPRX4 (Homo sapiens, UniProt Q96LA9)? 0.013
